STUDY_TARGET: T1, human TFPI alpha (full-length TFPIα) (human, UniProt P10646 29-304)
T1 construct: Analyte in SPR and added to plasma (2 or 20 nM) in thrombin generation assays; also called human TFPIα
EXPERIMENT_DESCRIPTION: SPR (Biacore T200), Fab captured on Human Fab Binder, TFPIα in solution, 1:1 fit
QUANTITY: kon (M⁻¹ s⁻¹)
Report the value in M⁻¹ s⁻¹ with no unit label.

Recorded kon, per entry:
BINDER	QUANTITY	UOM	ENDPOINT_VALUE
Fab 0313 (Fab fragment of mAb 2000) (Fab, V domains shown, Fab of the initial grafted HzTFPI4F36; KPI-2 specific) VH: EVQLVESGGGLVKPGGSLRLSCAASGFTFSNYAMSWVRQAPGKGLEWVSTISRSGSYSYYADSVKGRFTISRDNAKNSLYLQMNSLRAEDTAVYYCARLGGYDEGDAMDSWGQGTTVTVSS VL: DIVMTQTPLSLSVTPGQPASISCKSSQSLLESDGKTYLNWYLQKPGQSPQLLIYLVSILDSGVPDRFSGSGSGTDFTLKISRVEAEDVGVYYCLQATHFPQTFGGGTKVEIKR	kon	M⁻¹ s⁻¹	49000
Fab 0088 (Fab fragment of mAb 2021) (Fab, V domains shown, free C-terminal cysteine; KPI-2 specific) VH: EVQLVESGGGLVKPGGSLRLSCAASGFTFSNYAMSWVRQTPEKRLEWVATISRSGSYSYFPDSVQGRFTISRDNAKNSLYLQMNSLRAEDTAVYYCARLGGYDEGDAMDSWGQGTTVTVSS VL: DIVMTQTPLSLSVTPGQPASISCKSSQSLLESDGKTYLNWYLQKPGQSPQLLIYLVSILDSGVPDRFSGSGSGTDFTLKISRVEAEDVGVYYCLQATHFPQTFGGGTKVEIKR	kon	M⁻¹ s⁻¹	1.7e+06
Fab 0089 (Fab fragment of mAb 4F110) (Fab, V domains shown, Chimeric mouse/human Fab; HC truncated after the hinge cysteine; KPI-3 specific) VH: QVQLQQSGAELVKPGASVKLSCKASGYTFISYYMYWVKQRPGQGLEWIGEINPSNGDTNLNEKFKSKATLTVDKSSSTVYMQLSSLTSEDSAVYYCTRWDRFDGFVYWGQGTLVTVSA VL: ETTVTQSPASLSMAIGGKVTIRCIISTNIDDDINWYQQKPGEPPKLLISEGNTLRPGVPSRFSSSGYGTDFVFTIENMLSEDVADYYCLQSDDLPYTFGGGTKLEIKR	kon	M⁻¹ s⁻¹	5e+06

The binder listed as Fab 0094 (Fab fragment of mAb 2007) (Fab, V domains shown, KPI-2 specific) VH: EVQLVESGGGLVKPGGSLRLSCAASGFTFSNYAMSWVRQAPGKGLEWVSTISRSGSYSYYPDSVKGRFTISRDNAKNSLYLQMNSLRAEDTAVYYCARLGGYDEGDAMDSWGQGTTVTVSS VL: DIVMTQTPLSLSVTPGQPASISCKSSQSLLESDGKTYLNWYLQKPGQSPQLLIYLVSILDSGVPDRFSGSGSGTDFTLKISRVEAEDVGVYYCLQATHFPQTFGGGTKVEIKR shows kon equal to 150000
